The reader will find reported Elution Rate (%) LSA values listed item by item below.
- procedure.text: leaching of Japan cedar blocks treated with LSA and chemical agents (Example 4)
- Assay type: physicochemical
- test.settings: in the absence of enzyme (comparison), 5% LSA, pH 8.1-8.8
Give the value in % but do not write % after it.

[[record]]
compound = "CC(C)=CCCC(C)CCO (stereo not drawn) [100 ppm β-citronellol, β-citronellol]"
recorded_result = 25.4

[[record]]
compound = "CC12CCC(CC1)C(C)(C)O2 [500 ppm cineole, cineole]"
recorded_result = 25.7


Give reported Elution Rate (%) LSA value for CC1=CC[C@@H]2C[C@H]1C2(C)C [500 ppm (1R)-(+)-α-pinene, (1R)-(+)-α-pinene] 22.8

Give reported Elution Rate (%) LSA value for Nc1ccccc1N [200 ppm o-Phenylenediamine, o-Phenylenediamine] 16.5

Give reported Elution Rate (%) LSA value for CC(C)c1cccc(=O)c(O)c1 [1000 ppm Hinokitiol, Hinokitiol] 24.2

Give reported Elution Rate (%) LSA value for C=CCN=C=S [100 ppm Allyl isothiocyanate, Allyl isothiocyanate] 26.3

Give reported Elution Rate (%) LSA value for CC1CCC(C(C)C)C(O)C1 [500 ppm (1R,2S,5R)-(−)-menthol, (1R,2S,5R)-(−)-menthol] 27.4
